Give YAP1 (% UT) for every item shown.
system: Yap1 mRNA; assay: Antisense inhibition of human Yap1 in SNU-449 cells by modified oligonucleotides, single dose (Example 5, RTS36584); format: cell-based; conditions: Table 49; Yap1 mRNA level relative to untreated control; modified oligonucleotides targeting SEQ ID NO.: 1 and 2
Strand notation (5' to 3'): a small letter for the sugar, then the base; units joined by * are phosphorothioate-linked, units joined directly phosphodiester-linked; [ ] holds rarer units or linkages, { } end groups; capitals alone tell only the bases. e = 2'-O-(2-methoxyethyl) (MOE); k = constrained ethyl (cEt); [5mC] = 5-methylcytosine; d = 2'-deoxy (DNA)
One number for each entry, in % UT.

The examples below pair each entry with its known result.
1198341 (k[5mC]*kA*kA*d[5mC]*dT*d[5mC]*dT*dT*dA*dT*dA*dT*kG*eG*kT*eT; antisense) [Compound 1198341] : 90
1198545 (antisense kA*kA*kA*dT*dT*dG*dT*d[5mC]*dT*d[5mC]*dA*dT*kG*k[5mC]*k[5mC]*eT) [Compound 1198545] : 32

In the following, a different substance is considered.
Q: Form field - read-out: YAP1 (% UT); system: Yap1 mRNA; submitted item: 1198357 (kT*kT*kA*dA*dA*dG*dT*dG*dT*dA*dT*dG*kT*e[5mC]*kA*eG; antisense) [Compound 1198357]
A: 21

---

system: Yap1 mRNA; assay: Antisense inhibition of human Yap1 in A-431 cells by cEt gapmers, single dose (Example 2, RTS4814); format: cell-based; details: Yap1 mRNA as percent of untreated control; A-431 cells; 3-10-3 cEt gapmers targeting SEQ ID NO.: 1, and 2; Table 30
Strand notation (5' to 3'): a small letter for the sugar, then the base; units joined by * are phosphorothioate-linked, units joined directly phosphodiester-linked; [ ] holds rarer units or linkages, { } end groups; capitals alone tell only the bases. k = constrained ethyl (cEt); [5mC] = 5-methylcytosine; d = 2'-deoxy (DNA)
Quantity name: YAP1 (% UTC)
One number for each entry, in % UTC.

The examples below pair each entry with its known result.
1075792 (kG*kA*kT*dT*dA*dG*dA*dA*dA*dG*dT*dG*d[5mC]*k[5mC]*kT*kT; antisense) [compound 1075792] : 6
1074288 (antisense kG*kA*k[5mC]*dT*dG*dA*dT*dT*d[5mC]*dT*d[5mC]*dT*dG*kG*kT*kT) [compound 1074288] : 48
1074832 (kG*k[5mC]*kG*dA*dG*dG*dA*dT*dA*dA*dA*dA*dT*k[5mC]*k[5mC]*kA; antisense) [compound 1074832] : 17
1076528 (kT*kT*kA*dT*dA*dA*dT*dG*dG*dG*dA*dG*dG*kA*kT*kT; antisense) [compound 1076528] : 86

Could you report YAP1 (% UTC) for every entry in the following list?
1. 1075120 (kA*kA*kT*dT*dA*dG*d[5mC]*d[5mC]*dT*dA*d[5mC]*d[5mC]*dA*k[5mC]*k[5mC]*kT; antisense) [compound 1075120]
2. 1075632 (antisense kT*k[5mC]*k[5mC]*d[5mC]*dT*dA*dT*dA*dA*d[5mC]*d[5mC]*dA*dA*kA*kT*kG) [compound 1075632]
3. 1075504 (k[5mC]*kT*kT*dA*dA*dA*dT*dG*dA*dG*dA*dG*dA*kA*k[5mC]*k[5mC]; antisense) [compound 1075504]

A:
[42, 95, 71]

Hey, just so you know, these numbers are from patent US11214803B2.
